Test: soluble on expression in E. coli; label from the status in PepcDB or PDB records
Endpoint: soluble on expression in E. coli

| Construct Sequence | Measured Result |
| --- | --- |
| MLDNVLRIATRQSPLALWQAHYVKDKLMASHPGLVVELVPMVTRGDVILDTPLAKVGGKGLFVKELEVALLENRADIAVHSMKDVPVEFPQGLGLVTICEREDPRDAFVSNNYDSLDALPAGSIVGTSSLRRQCQLAERRPDLIIRSLRGNVGTRLSKLDNGEYDAIILAVAGLKRLGLESRIRAALPPEISLPAVGQGAVGIECRLDDSRTRELLAALNHHETALRVTAERAMNTRLEGGCQVPIGSYAELIDGEIWLRALVGAPDGSQIIRGERRGAPQDAEQMGISLAEELLNNGAREILAEVYNGDAPA | soluble |
| MEFVLASASPARRRLLQGIGINPIVHVSHFDESQIHHDDPAQLVEALAAAKAKTVAQHRQDALILGCDSVLHVRGEILGKPASPTEAIARWQTMRGHYGLLYTGHALVDQTQNQLLVRHGVTKVYFAAIDDDTIAAYVRSGEPLQCAGCFALEGKGGLFIEKIEGCHSNVIGLSLPLLREMLAHLGYTVQTLWP | not soluble |
| MGSDKIHHHHHHMLISANFDGGNIEVINQDDINNVQLAIRPDEGGEFFQWFNFRLQGEVGQRYTLNIINAGQASYTKGWEDYQAAATYDRQQWFRLPTQYQDGKLTIEVELDCEMIQIAYFAPYSYERHQDLLSAVQVHPLVSLEHLGKTLDDRDMTLVKVGDEDEEKAKIWITARQHPGETMAEWLVEGLLNNLLDGDCPTAKALLDKANFYIVPNMNPDGGVRGHLRTNAKGVNLNREWQSPSLEKSPEVYHVVNRMKETGVDLYYDVHGDEGLPYVFLAGCEGVPGYNQKMADLQGDFVKALLMASADFQDEFGYDKDEPGQANLTVASNWVAQTFGCLSNTLEMPFKDNANMPDPMSGWSPERCIYLGEASLLAMLAVVDKLR | not soluble |
| MSLLKQRFVLDTTALTDLQTREVMGYASLCEGMKAILDLIADARLHFGISCYVPYPSVYKEMYEFASRNGCDREVVAKIDTWLVKKSPDRYRVSVTSQIFHEYVAYMRERINRGMGVAEDAIWEAATECLFMENPQNKKKEYKEEVEREVIGGIIGKFRNKYRAALRYGILDSAPDIDVLILAKELDAAVIASDYGIEKWAEQLGVRFVPANVFPMMIQEYLKHLPENENEPEYENRDKSKEGSSGEIEFIEGHHHHHH | soluble |
| MSELIKHSSNFLAAISPDNDCSITATNDFEAMMSWLNGYKKKPINTSRNYAREVKRYLIWLSCQGLTLAQVKIEDVYEYFNLLERPTTEWIIPDKKTDKIYPTQLIKYGGLSNRSINYTHTVLGLFYSFLQDAGYLTKNPINLVKKALEHHHHHH | not soluble |
| MLVKGNEILLKAHKEGYGVGAFNFVNFEMLNAIFEAGNEENSPLFIQASEGAIKYMGIDMAVGMVKIMCERYPHIPVALHLDHGTTFESCEKAVKAGFTSVMIDASHHAFEENLELTSKVVKMAHNAGVSVEAELGRLMGIEDNISVDEKDAVLVNPKEAEQFVKESQVDYLAPAIGTSHGAFKFKGEPKLDFERLQEVKRLTNIPLVLHGASAIPDNVRKSYLDAGGDLKGSKGVPFEFLQESVKGGINKVNTDTDLRIAFIAEVRKVANEDKSQFDLRKFFSPAQLALKNVVKERMKLLGSANKI | soluble |
| TLTVNGPPIISSTQTQHALHGEKGQIKCFIRSTPPPDRIAWSWKENVLESGTSGRYTVETISTEEGVISTLTISNIVRADFQTIYNCTAWNSFGSDTEIIRLKEQGSEM | soluble |
| MSSAIERKSLDPSEEPVDEVLQIPPSLLTCGGCQQNIGDRYFLKAIDQYWHEDCLSCDLCGCRLGEVGRRLYYKLGRKLCRRDYLRLFGQDGLCASCDKRIRAYEMTMRVKDKVYHLECFKCAACQKHFCVGDRYLLINSDIVCEQDIYEWTKINGMI | not soluble |
| MAEAAQAPQQQFAIQRIYLKDVSFEAPSSPVMFQKEWNPDVKLDLDTQSRELGQGVYEVVLRLTVTVKNAEETAFLCEVQQAGIFSAEQMEAGQLAHCLGAFCPNILFPYARETISSLVVKGTFPQLNLAPVNFDALFMNYLQQQAQEGATANA | not soluble |
| MLPETDLRRVAAAAAAMHRVAEIRRTRVSGRMDNHERRVGTEWVVTLQGADFPVTIAADHDGSTVSFDDGSSMRVTSDWTPLEHHHHHH | not soluble |
| GSAPAKEPSVNTALVPQLSTISRALTPSPVMVLENIEPEIVYAGYDSSKPDTAENLLSTLNRLAGKQMIQVVKWAKVLPGFKNLPLEDQITLIQYSWMSLSSFALSWRSYKHTNSQFLYFAPDLVFNEEKMHQSAMYELCQGMHQISLQFVRLQLTFEEYTIMKVLLLLSTIPKDGLKSQAAFEEMRTNYIKELRKMVTKCPNNSGQSWQRFYQLTKLLDSMHDLVSDLLEFCFYTFRESHALKVEFPAMLVEIISDQLPKVESGNAKPLYFHRK | soluble |
| MSLEFAMWAYPWDLLDEGPSEVERRLRDIGIDELNLATNYHTVQAFTPHSPERRTLFARASSYFEPGPEYGDLEPVPYEGMNGDWVADAATGLSDLTLNSWTVGCHNSRLGMANPEYTLESAHGDDLVFGLCPSQPAVQTYLSALVSDLSSRDEFARIELETFDYFYGTGFGWHHQKIHARLGVLGEFLLGLCFCPHCRKNAKAAGVDAERVRSTVADTIDDIVAGDVSHEHPPEEWLADHSTVAAYVDVRERTLASLYATLADAAGTTSLGYYVGAPEPGREWVVGADLQALSNHVDYYCLPAYESSSDAVIGAYNAVETVIDDVPLHIGLLPGHPAIDDEATVVDIVETLDSKGVPRLSFYNYGLLPEQSLEWVETAIETVSEGHHHHHH | soluble |
| MGSDKIHHHHHHMEKKPLYHFMPGTMTWSFGTPGCNFKCANRQNWAISQMGQDKSIPLATPEAIVRNAMNTGCSSISCTYTEPTIFAEYALDVMQLARQTGLRNIWISNGYLSPLCLKTVTPWLDAINVGLQSMDDAFYRRVCGARLDPVLDSLRLIQESGMHLEITTLVIPGHSSDPAMLERLAGFIAHDLGTGVPWHIIPFYPEISWKMQDTPPTPAESIEQAFEIGRKAGLSFIYAGNAHSDTFCDQCSARLVGRKASPFGDYRIERFDTGGRCPVCHAPSPMRD | not soluble |

---

Test: soluble on expression in E. coli; label from the status in PepcDB or PDB records
Endpoint: soluble on expression in E. coli

| Construct Sequence | Measured Result |
| --- | --- |
| MSLSQFKPTWMVKNIYDLTPAQLRANGIKVILTDLDNTLIAWNNPDGTPELRHWLTLLELAGIRVIVVSNNNRKRVDRAVAPFNLDYIHRALKPLSWGILRALRRWHLNRDEVVMVGDQLLTDVWAAHHSGVRSVLVKPILKSDAWVTKGNRLMEKVVMWRLRHNYPELTWQEDLDERKAHEGHHHHHH | soluble |
| MCSLSAIMLLPTKLKPAYSDKRSNSSSSSSLFFNNRRSKKKNQSIVPVARLFGPAIFESSKLKVLFLGVDEKKHPSTLPRTYTLTHSDITAKLTLAISQSINNSQLQGWANRLYRDEVVAEWKKVKGKMSLHVHCHISGGHFLLDLFAKFRYFIFCKELPVVLKAFVHGDGNLLNNYPELQEALVWVYFHSNVNEFNKVECWGPLWEAVSPDGHKTETLPEARCADECSCCFPTVSSIPWSHSLSNEGVNGYSGTQTEGIATPNPEKL | soluble |

---

Experiment: soluble on expression in E. coli; label from the status in PepcDB or PDB records

| Construct Sequence | soluble on expression in E. coli |
| --- | --- |
| MGQLVDGVWHDTWYETKSTGGHFKRSESAFRNWVTPDGAPGLTGKGGFPAQSGRYHLYVSLACPWAHRTLLMRQLKGLEDHIAVSVVHPLMLDHGWTFGTDFEAATGDSLYQHEFLYQLYLHAKPDYSGRVTVPVLWDTEQHTVVSNESADIIRMLNSAFDGVGAIAGDYYPEALRTQIDELNSWIYDKVNNGVYKAGFATTQSAYDESASTVFAALSDLETILAKQRYLTGEQLTEADLRLWTTLIRFDPVYHTHFKCDKYRLSDYPNLFGFLRDIYQMPGIAETVDMAHIRHHYYRSHGLEHHHHHH | not soluble |
| MGSDKIHHHHHHMMVNESADQLYSFALLDEDAKREIRRSLLKAVALPGHLIPFASRDLPIARGWGTGGLQITLSIITPDDTLKVIDQGDDESVNAVNLRRLIHRTTGVATTTDTAAASLIQTRHRIPEEPLRADQILVLQVPMADPLRWVEPSLERAITMHGETDYGKMWVYLYESVVRAGDLRIASQYPVIVNHRYMMDTTPIPRWDVPKLHMAETLYLFGAGREKRIYAVPPHTPVEPLQFEDYPFRTEYRPGQRCARCGAENTFLTSHFVADANGGRWEMTCSDVAFCAKRQGEQRDR | not soluble |
| MVITKIVGHIDDLSHQIKKVDWLEVEWEDLNKRILRKETENGTDIAIKLENSGTLRYGDVLYESDDTLIAIRTKLEKVYVIKPQTMQEMGKMAFEIGNRHTMCIIEDDEILVRYDKTLEKLIDEVGVSYEQSERRFKEPFKYRGHQH | soluble |
| MVPPITSDEFCETSGCFGDSANLHTTLERLKININSDAKKLVDTNGDLKKHQRFLRIAKVTSLRSKDPNTQVGCVIVDKDNCIVSVGYNGFPIGVDDDVFRWDKEDPEDNKHLYVVHAEMNAIINKRCTTLHDCTVYVTLFPCNKCAQMLIQSRVKKVYFLENRDELAFRASKKMLDHARLPYEQIVMPQEAYVIEL | not soluble |
| MAHHHHHHMKENVLINENIKAHEEKGNLNDDKRDEHMISLRGLNIYYKDKLENLNTIKNIDNNKKFIKLVLEDVDLKPEEIMKHILHLLKEKTSLHTILEINKQKYKIKYKEIIPDDHILFTQNIQNITNCKYALLGILKVSKYTKKNTFNEKLLQSWQDVPMEF | not soluble |
| AHHHHHHGSVDYELLKKVVEAPGVSGYEFMGIRDVVIEEIKDYVDEVNVDKLGNVIAHKKGEGPKVMIAAHMDQIGLMVTHIEKNGFLRVAPIGGIDPRTLIAQRFKVWIDKGKFIYGVGGSVPPHIQKPEDRKKAPDWDQIFIDIGAESKEEAEELGVKIGTIVTWDGRLERLGKHRFVSIAFDDRIAVYTLIETARQLQDTKADIYFVATVQEEVGLRGARTSAFGINPDYGFAIDVTIAADVPGTPEHKQVTQLGKGTAIKIMDRSVICHPTIVRWMEELAKKYEIPYQWDILLGGGTDAGAIHLTRAGVPTGAVSIPARYIHSNAEVVDERDVDASVKLMVKVLEHIHELKI | soluble |
